Please respond with reported MIC for every item in the list.
Test system: Proteus rettgeri NIH 96
Experiment: antimicrobial activity, serial dilution method on agar plate
Type: cell-based
Details: Providencia rettgeri, NIH96, read-out: Minimum Inhibitory Concentration, inoculum 1 × 10^6 cells/ml
Counter-ions that a name gives are not always drawn.
One number for each entry, in µg/mL.

Field: example entries. Status: answers known.
CC1CCc2c(N3CCNCC3)ccc3c(=O)c(C(=O)O)cn1c23 (stereo not drawn) [A] = 0.4
CCn1cc(C(=O)O)c(=O)c2ccc(C)nc21 [E] = 0.8
O=C(O)c1cn2c3c(c(N4CCNCC4)ccc3c1=O)CCC2 [B] = 1.6
CC1Cc2c(N3CCNCC3)ccc3c(=O)c(C(=O)O)cn1c23 (stereo not drawn) [C] = 0.8
CC1Cc2c(N3CCNCC3)c(Cl)cc3c(=O)c(C(=O)O)cn1c23 (stereo not drawn) [Compound Y] = 0.1

Let's switch to this molecule now.
Measured MIC for this entry CC1CCc2c(N3CCNCC3)c(Cl)cc3c(=O)c(C(=O)O)cn1c23 (stereo not drawn) [Compound T, hydrochloride hydrate] on Proteus rettgeri NIH 96: 0.2
